Where do these numbers come from? They come from the Human Domainome abundance scans (Beltran et al. 2025).

B1: Ventral anterior homeobox 1, residues 102 to 157; numbered along this chain, Q5SQQ9 (parent)
chain: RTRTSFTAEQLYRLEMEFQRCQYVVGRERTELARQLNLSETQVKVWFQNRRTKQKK

- Variants of: B1
- Experiment summary: abundance fitness (aPCA) (normalised: wild type 0, dead -1); higher = more abundant; growth selection in yeast, the domain comes from the species named
- Experimental parameters: Homo sapiens
Hi, to clarify the labels: Satisfied covers abundance fitness from -0.1 upward, Not satisfied covers anything below -0.1.

    variant_annotation       category
 0                R51Y      Satisfied
 1                R34I  Not satisfied
 2                S39Q  Not satisfied
 3                 S5D      Satisfied
 4                L38V      Satisfied
 5                K56L  Not satisfied
 6                L38F  Not satisfied
 7                 T7A  Not satisfied
 8                R13L      Satisfied
 9                W46I  Not satisfied
10                 T7P  Not satisfied
11                T30V      Satisfied
12                E17Q  Not satisfied
13                E28K  Not satisfied
14                Q48A  Not satisfied
15                Y12I  Not satisfied
16                 T4K      Satisfied
17                K55W  Not satisfied
18                K44N      Satisfied
19                F47T  Not satisfied
20                R51M  Not satisfied
21                Y23M      Satisfied
22                E31C  Not satisfied
23                E40P  Not satisfied
24                 S5C  Not satisfied
25                E40R  Not satisfied
